- Tested on: Topo II
- experiment summary: Topo II inhibitory assay
- Format: biochemical
readout label: IC50 (µM)

I. CCn1c2c(c(=O)[nH]c1=O)C1(C(=O)Nc3ccc([N+](=O)[O-])cc31)c1c(n(CC)c(=O)[nH]c1=O)N2
II. O=C1Nc2ccc(Cl)cc2C12c1c(n(Cc3ccccc3)c(=O)[nH]c1=O)Nc1c2c(=O)[nH]c(=O)n1Cc1ccccc1
input: From the items above, decide which of I and II has the lower IC50 reading. // return label of chosen record
output: II
(II: 2.66 µM, I: 4.47 µM)

----------
Parameter: IC50. Scope: all listed entries.
- experiment summary: Cytotoxic effects on normal bone marrow cells
- Type: cell-based, mice
- measurement conditions: mouse, mean ± SD
Please give a number only; it is taken to be in µg/mL.

compound="COc1cccc2c1C(=O)c1c(O)c3c(c(O)c1C2=O)C[C@@](O)(C(=O)CO)C[C@@H]3O[C@H]1C[C@H](N)[C@H](O)[C@H](C)O1 [Dox, doxorubicin, reference compound]" readout_label=IC50 uom=µg/mL recorded_measurement=0.3

input: Look up IC50 for this compound: O=c1[nH]cc(F)c(=O)[nH]1 [Compound 5-FU, 5-fluorouracil, reference compound]
output: 103
